For each of the compounds below, state its MIC.
# System: Pseudomonas aeruginosa 10145
# protocol notes: In vitro antibacterial activity (MIC, agar dilution), Biological Example 1
# Assay type: cell-based
# experimental parameters: 18 h; Pseudomonas aeruginosa 10145, Table 25; read-out: Minimum Inhibitory Concentration
One number for each entry, in mg/L.

Completed entries (count: 4):
[[record]]
compound = "C#CCCON=C1CN(c2nc3c(cc2F)c(=O)c(C(=O)O)cn3C2CC2)CC1CN (stereo not drawn)"
reading = 1

[[record]]
compound = "CON=C1CN(c2c(F)cc3c(=O)c(C(=O)O)cn(C4CC4)c3c2Cl)CC1CN (stereo not drawn)"
reading = 1

[[record]]
compound = "NCC1CN(c2cc3c(cc2F)c(=O)c(C(=O)O)cn3C2CC2)CC1=NOCc1ccccc1 (stereo not drawn)"
reading = 0.5

[[record]]
compound = "CON=C1CN(c2c(F)cc3c(=O)c(C(=O)O)cn(C4CC4)c3c2F)CC1CN (stereo not drawn)"
reading = 0.5


// for each compound in input: emit MIC
1. NCC1CN(c2c(F)c(N)c3c(=O)c(C(=O)O)cn(C4CC4)c3c2F)CC1=NOCc1ccccc1 (stereo not drawn)
2. C#CCON=C1CN(c2nc3c(cc2F)c(=O)c(C(=O)O)cn3C2CC2)CC1CN (stereo not drawn)

*A*
[2, 0.5]
